Data origin: PubChem BioAssay (NCATS)

# System: Tov-21-G
# measurement-protocol: Primary qHTS to identify gynecologic anti-cancer compounds using libraries of approved drugs and bioactive compounds (AID 1345084); also: nearly all actives have a fitted effect of over 55% in size
# particulars: Gynecologic cancer cell panel viability, ATPlite luminescence, 48 h; series mostly up to 57.5 µM
Inconclusive results are not listed. Activity calls are given as the source filed them. Calls follow the shape of the dose curve; as a rule, active = well fitted cell-killing curve with a large enough effect; inconclusive = small, poorly fitted or top-dose-only effect, or effect the other way; inactive = flat fitted curve, though single readings scatter.
The categories you may choose from are active, inactive

Worked set:
CC(=O)O[C@@H]1CC[C@@]2(C)C(CC[C@]3(C)C2[C@H](O)C=C2[C@H]4[C@@H](C)[C@H](C)CC[C@]4(C)CC[C@]23C)[C@@]1(C)C(=O)O (stereo partly specified) :: inactive
CN(C)C(=O)C(=O)c1cn(C)c2cc(Cl)c(C(=O)N3CCC(Cc4ccc(F)cc4)CC3)cc12 :: inactive
C=C1C(=O)O[C@@H]2/C=C(\CO)CC/C=C(/C=O)C[C@@H](O)[C@@H]12 :: active

Now for another entry.
In this assay, the call recorded for `Cc1cc(-c2nc(-c3ccc(OC(F)(F)F)cc3)no2)nn1Cc1ccnc(N2CCN(C3CC3)CC2)c1` was what?
inactive

###

# measurement-protocol: Primary redox qHTS assay for identification of artifact compounds. (AID 1845223);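 also: 0% = DMSO and 100% = reference compound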
# particulars: Amplex Red/HRP redox cycling with DTT, fluorescence; series mostly up to 53.8 µM
Results filed as inconclusive are left out. Activity calls are given as the source filed them. Calls come from the whole dose curve; as a rule, active = well fitted activation curve with a large enough effect; inconclusive = small, poorly fitted or top-dose-only effect; inactive = flat fitted curve, though single readings scatter.
reported-endpoint: redox activity (% of DA3003)

// known answers, use as guide
CC(C)c1ccccc1OC(=O)NCCc1ccc2ccccc2c1 :: inactive
O=C(NCC(=O)N1CCCC1)Nc1ccc2cnccc2c1 :: inactive
Cc1cc(N2CCN(C(=O)Oc3ccc(-c4ccccc4)cn3)CC2)c2ccccc2n1 :: inactive
O=C(O)c1cc(N(Cc2ccc(C3CCCCC3)cc2)C(=O)c2ccc(Oc3ccccc3)cc2)ccc1O :: inactive
CC1=CC2/C=C(\C)CCC(O)C(=O)C(O)CC(=O)C23C(=O)NC(CC(C)C)C3C1C (configuration not stated) :: inactive

What does the record list as redox activity (% of DA3003) for `COC1=CC(=O)C[C@@H](C)[C@@]12Oc1c(Cl)c(OC)cc(OC)c1C2=O` ?
inactive

What does the record list as redox activity (% of DA3003) for CC(C)(C)Oc1ccc(OCC2Cc3ccccc3CN2C(=O)c2cccc3ccccc23)cc1 (configuration not stated) ?
inactive

What does the record list as redox activity (% of DA3003) for OC1C=C2C3CN(Cc4cc5c(cc43)OCO5)C2CC1O (configuration not stated) ?
inactive

What does the record list as redox activity (% of DA3003) for O=C(Nc1ccccc1Br)NC1CCN(c2ccc(C(F)(F)F)cn2)C1 (configuration not stated) ?
inactive

What does the record list as redox activity (% of DA3003) for C=C1C(=O)O[C@@H]2C3C(=C(C)[C@@H](O)[C@@H](OC(=O)/C(=C/C)COC(C)=O)[C@@H]12)C(=O)[C@H]1O[C@@]31C (some centres not stated) ?
inactive

###

# measurement-protocol: Drug repurposing screens with cells derived from glioblastoma tumor samples (AID 1345199); also: potency is read from the fitted curve at half-maximal effect; nearly all actives have a fitted effect of over 40% in size
# particulars: GBM patient neurospheres viability, ATP luminescence, 48 h; tumour line A
Results filed as inconclusive are left out. Calls of active or inactive are those of the source. The call rests on the fitted dose curve; in most records, active means well fitted inhibition curve with a large enough effect; inconclusive means small, poorly fitted or top-dose-only effect; inactive means flat fitted curve, though single readings scatter.
reported-endpoint: Potency

// known answers, use as guide
CCCC1([C@H](O)C/C=C/[C@H]2[C@H](O)CC(=O)[C@@H]2CCCCCCC(=O)OC)CCC1 :: 20 µM (active)
CCCC(=O)N1CCCN(c2nc(N)c3cc(OC)c(OC)cc3n2)CC1 :: 17.8 µM (active)
CCOc1ccc(N=C(C)Nc2ccc(OCC)cc2)cc1 :: 11.2 µM (active)
CC#CCC(C)[C@H](O)/C=C/[C@@H]1[C@H]2C/C(=C/CCCC(=O)O)C[C@H]2C[C@H]1O (stereo not given in full) :: 17.8 µM (active)
CS(=O)(=O)OCCCNCCCOS(C)(=O)=O :: 39.8 µM (active)
C/C(=C(\CCOC(=O)c1ccccc1)SS/C(CCOC(=O)c1ccccc1)=C(/C)N(C=O)Cc1cnc(C)nc1N)N(C=O)Cc1cnc(C)nc1N :: 35.5 µM (active)
CCC(C)C(C(=O)OCC[N+](C)(CC)CC)c1ccccc1 (stereo not given) :: 11.2 µM (active)
CCCOc1ccc2nc(NC(=O)OC)sc2c1 :: 8.91 µM (active)
Cc1ccc(/C(=C\CN2CCCC2)c2cccc(/C=C/C(=O)O)n2)cc1 :: 35.5 µM (active)

What does the record list as Potency for `COc1cc2[nH]c(C)c(CCN3CCN(c4ccccc4)CC3)c2cc1OC` ?
15.8 µM (active)

###

# System: Es-2
# measurement-protocol: Primary qHTS to identify gynecologic anti-cancer compounds using libraries of approved drugs and bioactive compounds (AID 1345084); also: nearly all actives have a fitted effect of over 55% in size; also: potency is read from the fitted curve at half-maximal effect
# particulars: Gynecologic cancer cell panel viability, ATPlite luminescence, 48 h; series mostly up to 57.5 µM
Results filed as inconclusive are left out. The source made the active and inactive calls. Calls follow the shape of the dose curve; as a rule, active = well fitted cell-killing curve with a large enough effect; inconclusive = small, poorly fitted or top-dose-only effect, or effect the other way; inactive = flat fitted curve, though single readings scatter.
reported-endpoint: Potency

// known answers, use as guide
COc1cc(N2CCOCC2)ccc1NC(=O)c1csc(-c2cccnc2)n1 :: inactive
Cc1ccc(S(=O)(=O)N2CCC[C@H]2c2ccc(F)cc2)cc1 :: inactive
Cc1csc(N(C(=O)CSc2ccc(-c3ccccc3)nn2)C2CC2)n1 :: inactive
Cc1cc(NC(=O)NCCN2CCC(O)(Cc3ccccc3)CC2)c2ccccc2n1 :: inactive
CCOC(=O)N1CCC(N2CCC[C@@H](NC(=O)c3ccccc3C)C2)CC1 :: inactive

Query for Es-2: what Potency does the record show for CC(NCCCc1cccc(C(F)(F)F)c1)c1cccc2ccccc12 (stereo not drawn) ?
inactive

Query for Es-2: what Potency does the record show for `FC(F)(F)c1ccccc1-c1cc(C(F)(F)F)c2nc(C3=NOC4(CCCCC4)C3)[nH]c2c1` ?
inactive

Query for Es-2: what Potency does the record show for `C[C@H]1CO[C@@H]2Cn3cc(C(=O)NCc4ccc(F)cc4F)c(=O)c(O)c3C(=O)N12` ?
inactive

Query for Es-2: what Potency does the record show for `O=C1Cc2c([nH]c3ccc(Br)cc23)-c2ncccc2N1` ?
inactive

Query for Es-2: what Potency does the record show for `CC(C)=CCC[C@](C)(O[C@@H]1O[C@H](CO[C@@H]2OC[C@@H](O)[C@H](O)[C@H]2O)[C@@H](O)[C@H](O)[C@H]1O)[C@H]1CC[C@]2(C)[C@@H]1[C@H](O)C[C@@H]1[C@@]3(C)CC[C@H](O[C@@H]4O[C@H](CO)[C@@H](O)[C@H](O)[C@H]4O)C(C)(C)[C@@H]3CC[C@]12C` ?
inactive

###

# Tested on: CRL-7250
# measurement-protocol: Cytotoxic Profiling of Annotated Libraries Using Quantitative High-Throughput Screening (AID 1296008); also: % is scaled to controls: 0 for no effect and ±100 for the full control effect; nearly all actives have a fitted effect of over 60% in size
# particulars: Five cell lines viability, CellTiter-Glo ATP luminescence, 48-72 h; stronger effect = lower value
Records with an inconclusive call do not appear.
// reported max response for each item listed
Enter your answer as a number in %; do not include the unit.

// known answers, use as guide
CN(C)CCOc1cc(NS(=O)(=O)c2c(Cl)cc(C(F)(F)F)cc2Cl)ccc1Cl :: 2.92
COc1cc(NC(=O)c2cc(C3CC3)on2)c(OC)cc1Cl :: -0.243
CC1=C(C(=O)Nc2cc(Cl)ccc2Cl)C(c2ccco2)C2=C(CCCC2=O)N1 (stereo unspecified) :: -1.05
Cc1cc2c(N3CCCC3)nc(N3CCCC3)nc2n1C :: 1.58
Cc1cc(CS(=O)(=O)c2ccccc2)cc(OCc2ccc(CN3CCCC3CO)cc2)c1 (stereo unspecified) :: 4.21

What does the record list as max response for `CCOC(=O)C1=Cc2ccc(C(F)(F)C(F)(F)F)cc2N=C(N)C1` ?
-15.9

###

# Test system: Tov112D
# measurement-protocol: Primary qHTS to identify gynecologic anti-cancer compounds using libraries of approved drugs and bioactive compounds (AID 1345084); also: nearly all actives have a fitted effect of over 55% in size
# particulars: Gynecologic cancer cell panel viability, ATPlite luminescence, 48 h; series mostly up to 57.5 µM
Inconclusive results are not listed. Activity calls are given as the source filed them. Calls come from the whole dose curve; as a rule, active = well fitted cell-killing curve with a large enough effect; inconclusive = small, poorly fitted or top-dose-only effect, or effect the other way; inactive = flat fitted curve, though single readings scatter.
The categories you may choose from are Yes = active, No = inactive

Worked set:
Cc1cc(OCCCS(C)(=O)=O)cc(C)c1-c1cccc(COc2ccc(C3=CC(=O)NS3=O)cc2)c1 (centres undefined) :: No
CC1CCCC[C@H]2C(=O)C=C[C@H](O)[C@@H]2CC(=O)O1 (some centres undefined) :: Yes
COc1cc(O)cc(/C=C/c2cccc(O)c2)c1 :: No
Cn1sc(=O)n(Cc2ccccc2)c1=O :: No
C[C@H](CN(C)C)Oc1nc(Nc2cc3cccc(Cl)c3cn2)cnc1C#N :: No

In this assay, the call recorded for `Cc1cccc(CC(=O)N2CCc3c2ccc(-c2cn(C)c4ncnc(N)c24)c3F)n1` was what?
No

In this assay, the call recorded for `COc1ccc(CNCc2cccc3ccccc23)cc1` was what?
No

In this assay, the call recorded for COC1CC(O[C@H]2CC[C@]3(C)C4CC[C@]5(C)C(C6=CC(=O)OC6)=CCC56OC46CC[C@@H]3C2)OC(C)C1O[C@@H]1O[C@H](CO[C@@H]2O[C@H](CO)[C@@H](O)[C@H](O)[C@H]2O)[C@@H](O)[C@H](O)[C@H]1O (some centres undefined) was what?
Yes

In this assay, the call recorded for `COc1cc(C(N)=O)nc(-c2ccccn2)c1O` was what?
No
